The measurements presented in this section are drawn from the RNAGym collection of RNA variant scans (doi:10.1073/pnas.2313332121).

B1: TPR 5TU (parent)
chain: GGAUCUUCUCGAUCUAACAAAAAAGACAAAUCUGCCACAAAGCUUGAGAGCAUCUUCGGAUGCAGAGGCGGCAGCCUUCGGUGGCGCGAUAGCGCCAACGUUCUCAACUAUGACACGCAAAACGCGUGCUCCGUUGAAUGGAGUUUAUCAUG

Variants of: B1
Protocol summary: polymerase ribozyme fitness, log enrichment relative to wild type (log ratio); higher = more active; in vitro selection for triplet polymerase activity
Fewer inactive variants are shown than the library holds.
Assay readout: polymerase ribozyme fitness (log ratio)
One number for each entry.

# Mutation id, polymerase ribozyme fitness (log ratio)
records = [
    ("C85U U146A", -0.167),
]

Please report polymerase ribozyme fitness (log ratio) for every entry that follows.
1. A106G A110U
2. C75U C85A
3. C38U C95A
4. C38G C85U A89C
5. U56A G84A
6. A120U A137C A138U
7. A12G G80C G81C C118U U135A

Response:
[-3.42, -1.84, -1.07, -1.86, -1.06, -4.19, -1.66]
